Target: T1, human LRRC33-proTGFβ1 complex (human, UniProt Q86YC3 19-650; P01137 30-390)
T1 construct: also called hLRRC33-proTGFβ1; hLRRC33
T1 sequence (Q86YC3 other isoform, or with tags, fused parts or gaps limits assumed, chain 1 of 2): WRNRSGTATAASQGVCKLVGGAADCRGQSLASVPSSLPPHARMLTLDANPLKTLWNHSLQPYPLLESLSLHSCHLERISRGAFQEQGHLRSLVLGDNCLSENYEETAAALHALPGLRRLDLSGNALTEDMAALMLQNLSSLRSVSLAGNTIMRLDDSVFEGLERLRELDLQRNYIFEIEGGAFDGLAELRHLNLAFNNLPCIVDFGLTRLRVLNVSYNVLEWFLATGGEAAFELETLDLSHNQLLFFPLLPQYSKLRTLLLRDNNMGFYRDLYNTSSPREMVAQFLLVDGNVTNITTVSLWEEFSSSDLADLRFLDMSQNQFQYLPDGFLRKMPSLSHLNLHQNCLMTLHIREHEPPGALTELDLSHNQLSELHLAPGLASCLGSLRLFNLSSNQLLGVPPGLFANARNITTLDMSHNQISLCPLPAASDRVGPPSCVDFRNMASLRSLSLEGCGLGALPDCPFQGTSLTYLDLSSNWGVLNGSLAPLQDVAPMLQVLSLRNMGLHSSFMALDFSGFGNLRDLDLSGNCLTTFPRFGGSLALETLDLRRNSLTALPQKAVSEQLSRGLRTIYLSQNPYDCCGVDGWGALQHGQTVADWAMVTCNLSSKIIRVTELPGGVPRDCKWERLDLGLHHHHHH
T1 sequence (P01137 30-390 limits assumed, chain 2 of 2): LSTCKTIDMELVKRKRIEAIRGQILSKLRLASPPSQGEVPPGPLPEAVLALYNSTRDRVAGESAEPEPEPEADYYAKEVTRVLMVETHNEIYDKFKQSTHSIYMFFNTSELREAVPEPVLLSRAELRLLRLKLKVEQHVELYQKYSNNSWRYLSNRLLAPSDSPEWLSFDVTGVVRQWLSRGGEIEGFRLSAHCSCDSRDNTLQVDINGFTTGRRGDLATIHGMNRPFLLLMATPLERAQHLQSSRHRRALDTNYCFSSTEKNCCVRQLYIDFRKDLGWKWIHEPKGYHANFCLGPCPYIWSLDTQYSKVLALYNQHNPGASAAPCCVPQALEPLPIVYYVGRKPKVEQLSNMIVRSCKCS
Experiment: MSD-SET, solution equilibrium titration
MEASURED_ENDPOINT: pKd
Units for pKd: none; it is -log10 of a concentration expressed in mol/L.

Prompt line: Form field: reported pKd of Ab33 (antibody, IgG4, V domains shown) VH: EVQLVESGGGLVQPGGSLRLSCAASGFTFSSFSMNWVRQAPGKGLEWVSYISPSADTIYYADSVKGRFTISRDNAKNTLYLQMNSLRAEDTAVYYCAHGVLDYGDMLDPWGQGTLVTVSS VL: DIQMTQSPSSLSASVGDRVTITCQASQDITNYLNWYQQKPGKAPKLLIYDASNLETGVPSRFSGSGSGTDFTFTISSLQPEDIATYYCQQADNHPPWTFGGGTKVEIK
Response line: 10.34

# credit: patent US20220064275A1
